Reference source: patent US20260015434A1

Please go through the items and note down their reduction of signal intensity of TG10 binding to PNAG 0.
test system: TG10 binding to PNAG 0; assay: Monosaccharide inhibition of antibody binding on the array; settings: 10 mM monosaccharide
Answers are plain numbers, in %.

Consider the following illustrative entries.
molecule="N[C@H]1C(O)O[C@H](CO)[C@@H](O)[C@@H]1O (stereo partly shown) [glucosamine]" measured_number=94
molecule="CC(=O)N[C@H]1C(O)O[C@H](CO)[C@@H](O)[C@@H]1O (stereo partly shown) [N-acetyl glucosamine]" measured_number=15

Attention now turns to another entry.
[in] I would be grateful if you could share the reported reduction of signal intensity of TG10 binding to PNAG 0 for N[C@H]1C(O)O[C@H](CO)[C@H](O)[C@@H]1O (stereo partly shown) [galactosamine] .
[out] 45
